- study target: T1, sRAGE (V-C1-C2) lot LP08062 (human, UniProt Q15109 23-331, limits assumed)
- T1 construct: domain: V-C1-C2; also called Human RAGE; LP08062 (Rage)
- T1 sequence (Q15109 23-331 limits assumed): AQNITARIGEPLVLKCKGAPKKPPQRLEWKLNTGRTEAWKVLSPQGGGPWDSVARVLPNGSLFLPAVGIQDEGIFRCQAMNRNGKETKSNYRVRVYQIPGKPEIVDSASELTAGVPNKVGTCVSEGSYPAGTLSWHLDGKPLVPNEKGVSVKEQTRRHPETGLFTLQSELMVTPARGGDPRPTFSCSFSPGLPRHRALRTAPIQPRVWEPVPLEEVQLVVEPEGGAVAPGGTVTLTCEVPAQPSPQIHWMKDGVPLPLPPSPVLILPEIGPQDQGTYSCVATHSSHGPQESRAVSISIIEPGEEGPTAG
- measurement protocol: SPR (Biacore), mAb captured on anti-mouse Fc, sRAGE 15 nM, Langmuir 1:1
- Protocol: The assay is based on a capture assay using immobilized anti-mouse Fc IgG on CM5 chip. For immobilization of anti-Fc antibody HBS-EP was used as running buffer. Standard amine coupling to a CM5 chip was carried out at a contact time of 11 min and a flow rate of 10 μl/min. 10 mM Sodium Acetate pH 5.0 was used as immobilization buffer. The protein concentration (anti-mouse Fc, Biacore BR-1008-38) was 100 μg/mL. […]
Each item that follows carries a reported Kd.
Reply numerically in nM, unit not repeated.

-- ask I have this binder here, 166 RAGE-1 (antibody, V domains shown, Anti-RAGE monoclonal antibody from a hybridoma, captured by anti-mouse Fc; also called LP08122; LP08122D) VH: QVQLQQSGPELVKPGTSVRISCKASGYTFTSYYIHWVKQRPGQGLEWIGWIYPGNVITNYHEKFKGKASLTADKSSSTAYMQLSSLTSEDSAVYFCAREDPFAYWGQGTLVTVSA VL: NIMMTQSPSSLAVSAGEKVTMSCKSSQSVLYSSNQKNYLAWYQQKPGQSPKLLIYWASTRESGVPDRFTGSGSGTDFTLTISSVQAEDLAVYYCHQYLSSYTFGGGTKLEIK , and I need its recorded Kd.
-- reply 0.234

Consider the additional binder presented here.
-- ask Look up Kd for this binder: 173 RAGE-1 (antibody, V domains shown, Anti-RAGE monoclonal antibody from a hybridoma, captured by anti-mouse Fc; also called LP08107) VH: EVKLEESGGGLVQPGGSMKLSCVASGFTFSNYWMNWVRQSPEKGLEWVAEIRLKSNNYATHYAESVKGRFTISRDDSKSSVYLQMNDLRAEDPGIYYCIRDYGNYAMDHWGQGTSVTVSS VL: DIVMTQSQKFMSTSVGDRVSVTCKASQNVGTNVAWYQQKPGQSPKALIYSASYRYSGVPDRFTGSGSGTDFTLTISNVQSEDLAEYFCQQYNSYPLTFGAGTKLELK
-- reply 0.678
